Values compiled from patent US20160215065A1.

Target: T1, mouse active NSP4 (mA) (mouse), Q14B24
T1 chain: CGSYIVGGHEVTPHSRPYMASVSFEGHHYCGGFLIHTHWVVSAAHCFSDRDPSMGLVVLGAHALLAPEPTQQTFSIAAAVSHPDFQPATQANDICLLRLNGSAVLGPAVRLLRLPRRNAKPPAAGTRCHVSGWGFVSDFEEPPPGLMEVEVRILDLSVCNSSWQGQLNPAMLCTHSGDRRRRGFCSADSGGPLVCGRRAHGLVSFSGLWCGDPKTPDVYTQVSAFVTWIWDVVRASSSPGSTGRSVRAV
Assay: competition phage ELISA (phage IC50); soluble mA-NSP4 against plate-coated NSP4
Conditions: remark: other sources report otherwise
pIC50: −log10 of the molar value.

{"columns": ["BINDER", "pIC50"],
 "data": [
  ["anti-NSP4 antibody 5-1 (antibody, human IgG1, V domains shown) VH: EVQLVESGGGLVQPGGSLRLSCAASGFTFSGSGIHWVRQAPGKGLEWVAWISPTGGNTYYADSVKGRFTISADTSKNTAYLQMNSLRAEDTAVYYCAKSLFHNVAFDYWGQGTLVTVSS VL: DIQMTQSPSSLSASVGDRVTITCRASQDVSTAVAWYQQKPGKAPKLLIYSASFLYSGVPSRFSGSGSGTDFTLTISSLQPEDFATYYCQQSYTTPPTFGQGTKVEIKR", 8.00]
]}
